Target: human factor XIIa (FXIIa) (Homo sapiens)
Assay: biochemical
Conditions: read-out: ka
Starred links: 1 amine or outer side, 2 acyl side, 3 side chain; linkers in the order of their positions; H or OH if unused. Positions of bridges follow the written chain, without caps; N, C: chain ends. Non-standard residues stand in square brackets, D forms with d. Residues, ends and D or L forms follow the SMILES beside them. ACHC(1S,2S) = O=C([C@H]1CCCC[C@@H]1N[*:1])[*:2]; X1 = O=C([C@@H]1CCC[C@H]1N[*:1])[*:2]
readoutName: kon (M⁻¹ s⁻¹)
Entry rule: numbers only, all in M⁻¹ s⁻¹.

A selection of reference data follows.
compound: CC(C)C[C@@H]1NC(=O)[C@H](CCCNC(=N)N)NC(=O)[C@H](C)NC(=O)[C@H](CCCNC(=N)N)NC(=O)[C@H]([C@@H](C)O)NC(=O)[C@H](CO)NC(=O)[C@H](CCCNC(=N)N)NC(=O)[C@H](CC(=O)O)NC(=O)[C@H](CC(N)=O)NC(=O)[C@@H](Cc2ccc(O)cc2)NC(=O)CSC[C@H](C(N)=O)NC(=O)[C@H](C)NC(=O)[C@H](C(C)C)NC1=O [F1A] ({CH2CO}-[dY]NDRSTRARLVA[dC]-NH2; thioether N-13)
experimentalTarget: human factor XIIa (FXIIa) (Homo sapiens)
outputUnit: M⁻¹ s⁻¹
numericResult: 580000

compound: CC(C)C[C@@H]1NC(=O)[C@H](CCCNC(=N)N)NC(=O)[C@H](CC(N)=O)NC(=O)[C@H]2CCCC[C@@H]2NC(=O)[C@H]([C@@H](C)O)NC(=O)[C@H](Cc2ccc(O)cc2)NC(=O)[C@H](CCCNC(=N)N)NC(=O)[C@@H](Cc2ccc(O)cc2)NC(=O)CSC[C@H](C(=O)NCC(N)=O)NC(=O)[C@H](C)NC(=O)[C@H](CC(N)=O)NC(=O)[C@H]2CCCC[C@@H]2NC(=O)[C@H](Cc2ccccc2)NC1=O [F4] ({CH2CO}-[dY]RYT[ACHC(1S,2S)]NRLF[ACHC(1S,2S)]NA[dC]G-NH2; thioether N-13)
experimentalTarget: human factor XIIa (FXIIa) (Homo sapiens)
outputUnit: M⁻¹ s⁻¹
numericResult: 550000

Here is another compound to look at.
Could you share what kon was measured for CC(C)C[C@@H]1NC(=O)[C@H](CCCNC(=N)N)NC(=O)[C@@H]2CCC[C@H]2NC(=O)[C@H](CCCNC(=N)N)NC(=O)[C@H]([C@@H](C)O)NC(=O)[C@H](CO)NC(=O)[C@H](CCCNC(=N)N)NC(=O)[C@H](CC(=O)O)NC(=O)[C@H](CC(N)=O)NC(=O)[C@@H](Cc2ccc(O)cc2)NC(=O)CSC[C@H](C(=O)NCC(N)=O)NC(=O)[C@H](C)NC(=O)[C@H](C(C)C)NC1=O [F1] ({CH2CO}-[dY]NDRSTR[X1]RLVA[dC]G-NH2; thioether N-13) , tested on human factor XIIa (FXIIa) (Homo sapiens)?
2.74e+06
